Target: SYK (Homo sapiens)
Quantity Measured: IC50

Prompt: For CC#CC(=O)N1CCC[C@H]1c1nc(-c2ccc(C(=O)Nc3ccccn3)cc2)c2c(N)nccn12 [Acalabrutinib, acalabrutinib, reference compound] , what is its reported IC50?
Completion: > 1000 nM

---

Assay: In vitro liver microsomal metabolism (mouse)
Type: in vitro ADME
Details: mouse liver microsomes, calculated from elimination half life; read-out: intrinsic clearance (CLint)
CLint scaled listing for selected compounds.
Report the value in mL/min/kg with no unit label.

>>> df
                                   compound  reported
0  CC#CC(=O)N1CCC[C@H]1c1nc(-c2ccc(Oc3ccccc3)cc2)c2c(N)nccn12       661

Prompt: For CC#CC(=O)N1CCC[C@H]1c1nc(-c2ccc(C(=O)Nc3ccccn3)cc2)c2c(N)nccn12 [Acalabrutinib, acalabrutinib, reference compound] , what is its reported CLint scaled?
Completion: 234
